Biological target: human estrogen receptor α (hERα) (Homo sapiens, UniProt P03372)
Construct: expressed in transfected cells; host or cells: CHO cells, line CHO-ERRO 2B1-1E9, with rat oxytocin promoter and luciferase reporter
Sequence (P03372 1-595): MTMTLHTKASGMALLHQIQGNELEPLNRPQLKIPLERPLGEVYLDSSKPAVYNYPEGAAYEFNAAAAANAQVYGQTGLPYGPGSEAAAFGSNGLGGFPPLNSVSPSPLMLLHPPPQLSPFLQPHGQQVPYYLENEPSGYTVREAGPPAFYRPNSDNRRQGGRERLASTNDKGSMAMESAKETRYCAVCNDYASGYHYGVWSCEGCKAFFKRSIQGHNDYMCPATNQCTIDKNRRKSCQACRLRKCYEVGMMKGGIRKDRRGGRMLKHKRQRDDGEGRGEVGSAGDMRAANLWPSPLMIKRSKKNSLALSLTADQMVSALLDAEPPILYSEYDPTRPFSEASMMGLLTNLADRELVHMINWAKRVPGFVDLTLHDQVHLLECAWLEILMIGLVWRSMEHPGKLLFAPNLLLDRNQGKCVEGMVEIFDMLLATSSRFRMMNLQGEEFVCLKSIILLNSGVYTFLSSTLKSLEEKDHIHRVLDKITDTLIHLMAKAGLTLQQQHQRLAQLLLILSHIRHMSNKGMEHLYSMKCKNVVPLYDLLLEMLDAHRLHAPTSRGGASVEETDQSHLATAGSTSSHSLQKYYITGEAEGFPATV
Test: competitive binding to cytoplasmic human estrogen receptor from recombinant CHO cells (α-binding)
Conditions: relative affinity (potency ratio), in percentage of the action of the reference compound in the assay; cytosol of recombinant CHO cells
Each record here notes measured α-binding..
Your answer should be a plain number; it is taken to be in percentage.

C#C[C@]1(O)CCC2C3CCC4=C(CC[C@@H](O)C4)C3[C@@H](CCC=C)C[C@@]21C (some centres unmarked) [Compound 42]    29
C#C[C@]1(O)CCC2C3CCC4=C(CC[C@H](O)C4)C3[C@@H](CCC=C)C[C@@]21C (some centres unmarked) [Compound 43]    11.9
C#C[C@]1(O)CCC2C3CC[C@H]4C[C@@H](O)CCC4C3[C@@H](CCF)C[C@@]21C (some centres unmarked) [Compound 31]    37
C#C[C@]1(O)CCC2C3CCC4=C(CC[C@@H](O)C4)C3[C@@H](CC=C)C[C@@]21C (some centres unmarked) [Compound 11]    57
C#C[C@]1(O)CCC2C3CC[C@H]4C[C@@H](O)CCC4C3[C@@H](C(F)F)C[C@@]21C (some centres unmarked) [Compound 21]    8.6

Please look at the following molecule next.
Reported α-binding. for C#C[C@]1(O)CCC2C3C(C4=C(C[C@H](O)CC4)C[C@H]3C)[C@@H](CCF)C[C@@]21C (some centres unmarked) [Compound 55] : what is it?
36

====

molecular target: human estrogen receptor α (hERα) (Homo sapiens, UniProt P03372); construct: expressed in transfected cells; host or cells: CHO cells, line CHO-ERRO 2B1-1E9, with rat oxytocin promoter and luciferase reporter; assay: transactivation assay in recombinant CHO cells (rat oxytocin promoter, luciferase reporter), α; assay type: cell-based; conditions: potency ratio, in percentage of the action of the reference compound in the assay
# α-transactivation per record follows
Report as a plain number; the unit percentage is understood.

What value of measured α-transactivation is listed for C#C[C@]1(O)CCC2C3CCC4=C(CC[C@H](O)C4)C3[C@@H](CCC=C)C[C@@]21C (stereo partly drawn) ?
1.3

Recorded α-transactivation of C#C[C@]1(O)CCC2C3C(C4=C(C[C@H](O)CC4)C[C@H]3C)[C@@H](CCF)C[C@@]21C (stereo partly drawn) , please.
61.5

Suppose we examine the compound C#C[C@]1(O)CCC2C3CC[C@H]4C[C@@H](O)CCC4C3[C@@H](CCF)C[C@@]21C (stereo partly drawn) ; what α-transactivation value has been reported?
9.6

State the recorded α-transactivation for this entry: C#C[C@]1(O)CCC2C3C(C4=C(C[C@@H](O)CC4)C[C@H]3C)[C@@H](CCF)C[C@@]21C (stereo partly drawn)
29.7

Fill in the blank: the reported α-transactivation of C#C[C@]1(O)CCC2C3CC[C@H]4C[C@H](O)CCC4C3[C@@H](CCF)C[C@@]21C (stereo partly drawn) is ____.
2.4

====

In this section, each of the compounds is paired with its reported β-binding.
target: human estrogen β receptor (hERβ) (Homo sapiens); construct: expressed in transfected cells; host or cells: CHO cells with rat oxytocin promoter and luciferase reporter (no ERβ line named); assay: competitive binding to cytoplasmic human estrogen receptor from recombinant CHO cells (β-binding); conditions: relative affinity (potency ratio), in percentage of the action of the reference compound in the assay; cytosol of recombinant CHO cells

Sample records with β-binding:
C#C[C@]1(O)CCC2C3CC[C@H]4C[C@@H](O)CCC4C3[C@@H](CCF)C[C@@]21C (some centres unmarked)    0.1 percentage
C#C[C@]1(O)CCC2C3CCC4=C(CC[C@@H](O)C4)C3[C@@H](CCC=C)C[C@@]21C (some centres unmarked)    0.1 percentage
C#C[C@]1(O)CCC2C3C(C4=C(C[C@@H](O)CC4)C[C@H]3C)[C@@H](CCF)C[C@@]21C (some centres unmarked)    0.1 percentage
C#C[C@]1(O)CCC2C3CC[C@H]4C[C@H](O)CCC4C3[C@@H](CCF)C[C@@]21C (some centres unmarked)    <0.1 percentage
C#C[C@]1(O)CCC2C3CC[C@H]4C[C@@H](O)CCC4C3[C@@H](C(F)F)C[C@@]21C (some centres unmarked)    0.2 percentage

Would you mind telling me what β-binding value was observed for C#C[C@]1(O)CCC2C3CCC4=C(CC[C@H](O)C4)C3[C@@H](CCC=C)C[C@@]21C (some centres unmarked) ?
0.1 percentage

Item under review: C#C[C@]1(O)CCC2C3C(C4=C(C[C@H](O)CC4)C[C@H]3C)[C@@H](CCF)C[C@@]21C (some centres unmarked) . Reported β-binding?
0.1 percentage

Name the reported β-binding value associated with the compound C#C[C@]1(O)CCC2C3CCC4=C(CC[C@@H](O)C4)C3[C@@H](CC=C)C[C@@]21C (some centres unmarked)
1.1 percentage

====

molecular target: human estrogen β receptor (hERβ) (Homo sapiens, UniProt Q92731); construct: expressed in transfected cells; host or cells: CHO cells with rat oxytocin promoter and luciferase reporter (no ERβ line named); assay: transactivation assay in recombinant CHO cells (rat oxytocin promoter, luciferase reporter), β; format: cell-based; conditions: potency ratio, in percentage of the action of the reference compound in the assay
Sequence (Q92731 whole entry): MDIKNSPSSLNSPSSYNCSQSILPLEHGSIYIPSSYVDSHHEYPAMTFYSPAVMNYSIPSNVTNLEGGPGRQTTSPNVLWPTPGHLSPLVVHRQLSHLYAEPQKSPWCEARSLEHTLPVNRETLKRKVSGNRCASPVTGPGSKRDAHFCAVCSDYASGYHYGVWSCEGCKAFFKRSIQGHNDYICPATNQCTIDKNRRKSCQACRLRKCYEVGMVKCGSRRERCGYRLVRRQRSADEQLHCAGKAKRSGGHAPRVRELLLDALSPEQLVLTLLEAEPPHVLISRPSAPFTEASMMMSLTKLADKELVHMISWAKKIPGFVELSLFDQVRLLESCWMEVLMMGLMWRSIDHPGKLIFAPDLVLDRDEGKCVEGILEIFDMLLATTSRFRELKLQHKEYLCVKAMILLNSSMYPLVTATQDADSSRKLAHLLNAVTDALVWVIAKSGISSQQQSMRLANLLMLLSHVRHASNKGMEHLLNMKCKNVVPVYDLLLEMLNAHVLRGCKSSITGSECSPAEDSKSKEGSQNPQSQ
Rule: β-transactivation under 0.8 percentage gives label 0, otherwise label 1.

A selection of reference data follows.
C#C[C@]1(O)CCC2C3C(C4=C(C[C@H](O)CC4)C[C@H]3C)[C@@H](CCF)C[C@@]21C (stereo partly drawn)    label 1
C#C[C@]1(O)CCC2C3CC[C@H]4C[C@H](O)CCC4C3[C@@H](CCF)C[C@@]21C (stereo partly drawn)    label 0
C#C[C@]1(O)CCC2C3CCC4=C(CC[C@@H](O)C4)C3[C@@H](CCC=C)C[C@@]21C (stereo partly drawn)    label 0

Assess whether reported β-transactivation for C#C[C@]1(O)CCC2C3C(C4=C(C[C@@H](O)CC4)C[C@H]3C)[C@@H](CCF)C[C@@]21C (stereo partly drawn) sits at 0.8 percentage or higher.
label 1

API: above_or_equal(metric=β-transactivation, cutoff=0.8 percentage) for item C#C[C@]1(O)CCC2C3CCC4=C(CC[C@H](O)C4)C3[C@@H](CCC=C)C[C@@]21C (stereo partly drawn)
label 0

Is it the case that C#C[C@]1(O)[C@H](C)CC2C3C(C(=C)C[C@@]21C)C1CC[C@H](O)C[C@@H]1C[C@H]3C (stereo partly drawn) has β-transactivation reaching or exceeding 0.8 percentage?
label 0

Say whether C#C[C@]1(O)CCC2C3CC[C@H]4C[C@@H](O)CCC4C3[C@@H](C(F)F)C[C@@]21C (stereo partly drawn) shows β-transactivation of 0.8 percentage or more.
label 0

Form field: β-transactivation at least 0.8 percentage? Entry: C#C[C@]1(O)CCC2C3CC[C@H]4C[C@@H](O)CCC4C3[C@@H](CCF)C[C@@]21C (stereo partly drawn)
label 0

====

Reported α-transactivation by item:
target: human estrogen receptor α (hERα) (Homo sapiens); construct: expressed in transfected cells; host or cells: CHO cells, line CHO-ERRO 2B1-1E9, with rat oxytocin promoter and luciferase reporter; experiment: transactivation assay in recombinant CHO cells (rat oxytocin promoter, luciferase reporter), α; format: cell-based; conditions: potency ratio, in percentage of the action of the reference compound in the assay

C#C[C@]1(O)CCC2C3CCC4=C(CC[C@@H](O)C4)C3[C@@H](CC=C)C[C@@]21C (stereo partly shown)    58 percentage
C#C[C@]1(O)CCC2C3CC[C@H]4C[C@@H](O)CCC4C3[C@@H](C(F)F)C[C@@]21C (stereo partly shown)    7.7 percentage
C#C[C@]1(O)CCC2C3CCC4=C(CC[C@@H](O)C4)C3[C@@H](CCC=C)C[C@@]21C (stereo partly shown)    2 percentage

# get_value(readout='α-transactivation', item= C#C[C@]1(O)[C@H](C)CC2C3C(C(=C)C[C@@]21C)C1CC[C@H](O)C[C@@H]1C[C@H]3C (stereo partly shown) )
27 percentage

Where do these numbers come from? They come from patent US6677329B1.
